- target_or_test_system: ECE (recombinant human form of the isoform ECE-1c) (Homo sapiens, UniProt P42892)
- Sequence (P42892 1-754 isoform P42892-3): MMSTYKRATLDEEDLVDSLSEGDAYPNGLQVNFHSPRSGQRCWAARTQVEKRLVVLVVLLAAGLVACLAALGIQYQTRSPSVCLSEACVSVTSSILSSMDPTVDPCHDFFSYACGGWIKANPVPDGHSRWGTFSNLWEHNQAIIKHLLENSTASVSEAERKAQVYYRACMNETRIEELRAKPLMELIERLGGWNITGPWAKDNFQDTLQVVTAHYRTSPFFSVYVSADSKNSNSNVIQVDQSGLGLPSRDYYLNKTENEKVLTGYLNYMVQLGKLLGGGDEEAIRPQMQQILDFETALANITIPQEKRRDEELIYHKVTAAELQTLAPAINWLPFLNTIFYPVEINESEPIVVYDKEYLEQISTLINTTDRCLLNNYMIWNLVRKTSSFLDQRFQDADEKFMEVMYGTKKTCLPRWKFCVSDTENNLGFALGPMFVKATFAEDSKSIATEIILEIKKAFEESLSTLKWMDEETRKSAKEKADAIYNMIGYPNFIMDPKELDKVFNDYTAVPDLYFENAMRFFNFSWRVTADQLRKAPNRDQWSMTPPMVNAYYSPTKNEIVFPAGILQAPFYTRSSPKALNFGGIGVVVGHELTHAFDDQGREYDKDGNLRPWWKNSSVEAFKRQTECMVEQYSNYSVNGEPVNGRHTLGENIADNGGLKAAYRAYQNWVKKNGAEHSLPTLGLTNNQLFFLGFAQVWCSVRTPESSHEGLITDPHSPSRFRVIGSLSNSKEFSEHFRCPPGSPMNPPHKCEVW
- test_name: In vitro inhibitory effect on endothelin converting enzyme (ECE), quenched-fluorescence substrate
- Assay type: biochemical
- recorded_conditions: inhibitor incubated with enzyme 45 minutes; substrate Mca-Arg-Pro-Pro-Gly-Phe-Ser-Ala-Phc-Lys(Dnp)COOH 5 μM
reported_property: IC50 (nM)

O=C(N[C@@H](Cc1ccccc1)P(=O)(O)C[C@H](Cc1cc(-c2ccccc2)no1)C(=O)N[C@@H](Cc1c[nH]c2ccccc12)C(=O)O)OCc1ccccc1 [Example 1]
8

[A] O=C(N[C@@H](Cc1ccccc1)P(=O)(O)C[C@H](Cc1cc(-c2ccccc2)no1)C(=O)N[C@@H](Cc1ccccc1)C(=O)O)OCc1ccccc1 [Example 2]
[B] O=C(N[C@@H](Cc1ccccc1)P(=O)(O)C[C@H](Cc1cc(-c2ccccc2)no1)C(=O)N[C@@H](Cc1ccc(O)cc1)C(=O)O)OCc1ccccc1 [Example 3]
Task: For the pair A and B , which entry has the numerically smaller recorded IC50? Respond with the label that goes with your answer.
Output: B
(B: 1.4 nM, A: 7.7 nM)
